# credit: PubChem BioAssay (NCI)

Give measured TGI for each item. Keep answers brief.
- System: U251 CNS
- Assay: NCI tumour cell line growth inhibition, 48 h

These recorded examples may help you get a feel for the data.
INSERT INTO assay_data (compound, assay_system, reported_result) VALUES
  ('COc1ccc(/C=C/C(=O)Oc2ccccc2OC)cc1', 'U251 CNS', '> 100 µM'),
  ('CCn1c(=N)sc2nc3ccccc3n2c1=O', 'U251 CNS', '> 100 µM'),
  ('C[n+]1ccccc1/C1=c2\cc/c([nH]2)=C(\c2cccc[n+]2C)C2=N/C(=C(/c3cccc[n+]3C)C3C=CC(N3)/C(c3cccc[n+]3C)=C3/C=CC1=N3)C=C2', 'U251 CNS', '> 100 µM');

Below are 2 compounds. Give each one its TGI.
1. O=C(Nc1ccc2c(c1)OCCO2)C(=O)c1c[nH]c2ccccc12
2. c1cc[c]([Sn]([O]c2cccc3cccnc23)([O]c2cccc3cccnc23)[c]2ccccc2)cc1

1. 15.9 µM
2. 2.6 µM

Below are 3 compounds. Give each one its TGI.
1. CC1(C)OC2OC(COC(=O)c3ccc(C#N)cc3)C3OC(C)(C)OC3C2O1 (stereo not given)
2. CN(C)N=Nc1ccc2[nH]c(=O)[nH]c2c1
3. COC(=O)CNC(=O)CCC(C)[C@H]1CCC2C3C(C[C@H](OC(C)=O)[C@@]21C)[C@@]1(C)CCC2(C[C@H]1C[C@H]3OC(C)=O)OOC1(CCCCC1)OO2 (stereo not given in full)

1: > 75 µM; 2: > 100 µM; 3: 3.41 µM

Below are 2 compounds. Give each one its TGI.
1. Cc1cc2c(cc1CO)N1Cc3cc(C)c(CO)cc3N(C2)C1
2. OC(COc1ccccc1)CN1CCCCC1 (stereo not given)

> 100 µM
> 100 µM
